Values compiled from patent US20210355225A1.

For each of the binders below, state its IC50.
target: T1, biotinylated Human PD1 (AcroBiosystems, reference EP-101) (human, UniProt Q15116 25-167, biotinylated); assay: competition ELISA, immobilized hPDL1 as competitor, biotinylated PD1 0.66 µg/ml mixed with antibody
T1 construct: also called Biotin-PD-1Fc; not shown: Fc part implied by the name 'Biotin-PD-1Fc'
T1 sequence (Q15116 25-167): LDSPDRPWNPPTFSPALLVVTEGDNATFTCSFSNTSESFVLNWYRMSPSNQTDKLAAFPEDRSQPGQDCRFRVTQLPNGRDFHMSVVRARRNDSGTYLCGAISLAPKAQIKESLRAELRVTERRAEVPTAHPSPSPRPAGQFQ

// query Param item = HLLD (antibody, human IgG4 S228P, kappa, V domains shown, also called humanized anti-PD1 variant HL heavy chain + LD light chain) VH: QIQLVQSGSELKKPGASVKVSCKASGYTFTHYAMNWVRQAPGQGLEWMGWINTNTGEPTYAQGFTGRFVFSLDTSVSTAYLQISSLKAEDTAVYYCAREREPGMDEWGQGTLVTVSS VL: DVVMTQSPLSLPVTLGQPASISCRSSQSLVHANTNTYLEWYQQRPGQSPRLLIYKVSNRFSGVPDRFSGSGSGTDFTLKISRVEAEDVGVYYCFQGTHVPNTFGQGTKLEIKR ; retrieve measured IC50.
// result 0.156 µg/mL

// query Also need HJLD (antibody, human IgG4 S228P, kappa, V domains shown, also called humanized anti-PD1 variant HJ heavy chain + LD light chain) VH: QIQLVQSGSELKKPGASVKVSCKASGYTFTHYAMNWVRQAPGQGLEWMGWINTNTGEPTYAQGFTGRFVFSLDTSVSTAYLQISSLKAEDTAVYYCAREREPGMDYWGQGTLVTVSS VL: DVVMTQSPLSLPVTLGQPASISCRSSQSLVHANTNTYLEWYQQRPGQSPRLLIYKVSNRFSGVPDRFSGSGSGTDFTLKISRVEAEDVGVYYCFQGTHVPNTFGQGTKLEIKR , thanks.
// result 0.194 µg/mL

// query Also HHLD (antibody, human IgG4 S228P, kappa, V domains shown, also called humanized anti-PD1 variant HH heavy chain + LD light chain) VH: QIQLVQSGSELKKPGASVKVSCKASGYTFTHYAMNWVRQAPGQGLEWMGWINTNTGEPTYAQGFTGRFVFSLDTSVSTAYLQISSLKAEDTAVYYCAREREPGMDHWGQGTLVTVSS VL: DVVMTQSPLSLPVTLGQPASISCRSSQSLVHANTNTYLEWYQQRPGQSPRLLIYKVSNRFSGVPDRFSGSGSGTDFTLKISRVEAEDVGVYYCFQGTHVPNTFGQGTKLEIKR , if possible.
// result 0.201 µg/mL

// query Lookup HKLD (antibody, human IgG4 S228P, kappa, V domains shown, also called humanized anti-PD1 variant HK heavy chain + LD light chain; humanized anti PD-1 (HKLD variant)) VH: QIQLVQSGSELKKPGASVKVSCKASGYTFTHYAMNWVRQAPGQGLEWMGWINTNTGEPTYAQGFTGRFVFSLDTSVSTAYLQISSLKAEDTAVYYCAREREPGMDNWGQGTLVTVSS VL: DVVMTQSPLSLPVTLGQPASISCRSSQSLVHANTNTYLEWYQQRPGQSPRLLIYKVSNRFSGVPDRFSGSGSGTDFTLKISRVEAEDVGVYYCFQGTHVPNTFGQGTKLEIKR
// result 0.205 µg/mL

// query Do the same for HILD (antibody, human IgG4 S228P, kappa, V domains shown, also called humanized anti-PD1 variant HI heavy chain + LD light chain) VH: QIQLVQSGSELKKPGASVKVSCKASGYTFTHYAMNWVRQAPGQGLEWMGWINTNTGEPTYAQGFTGRFVFSLDTSVSTAYLQISSLKAEDTAVYYCAREREPGMDAWGQGTLVTVSS VL: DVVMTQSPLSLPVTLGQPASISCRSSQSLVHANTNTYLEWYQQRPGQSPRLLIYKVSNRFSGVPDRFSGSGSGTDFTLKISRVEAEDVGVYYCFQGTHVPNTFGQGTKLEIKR please
// result 0.175 µg/mL
